- measuredTarget: cloned human δ opioid receptor (Homo sapiens)
- Construct: expressed in transfected cells; host or cells: C6 glioma cells (permanently transfected)
- Sequence (P41143 whole entry): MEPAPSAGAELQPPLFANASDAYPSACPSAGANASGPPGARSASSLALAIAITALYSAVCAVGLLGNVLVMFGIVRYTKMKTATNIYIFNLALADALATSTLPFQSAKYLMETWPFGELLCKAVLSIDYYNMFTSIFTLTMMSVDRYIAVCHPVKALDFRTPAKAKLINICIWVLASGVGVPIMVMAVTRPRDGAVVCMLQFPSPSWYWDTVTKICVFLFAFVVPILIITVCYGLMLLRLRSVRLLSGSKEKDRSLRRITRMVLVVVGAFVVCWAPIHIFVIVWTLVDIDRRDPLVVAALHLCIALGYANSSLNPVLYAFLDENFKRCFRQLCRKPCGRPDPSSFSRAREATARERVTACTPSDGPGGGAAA
- assayDetails: Radioligand binding, competitive inhibition of [3H]DPDPE
// pIC50 lookup, one value per entry
pIC50 is defined as minus the log10 of a concentration measured in mol/L.

Answered cases to consult:
• O=C(Nc1ccc2ccccc2c1)N1CCC(c2ccccc2)(c2nccn2Cc2ccccc2)CC1 = 7.20
• CCOc1ccccc1NC(=O)N1CCC(c2ccccc2)(c2nccn2Cc2ccccc2)CC1 = 7.40
• c1ccc(Cn2ccnc2C2(c3ccccc3)CCN(c3ncccn3)CC2)cc1 = 7.70
• O=C(C1CC1)N1CCC(c2ccccc2)(c2nccn2Cc2ccccc2)CC1 = 7.30
• O=C(Nc1ccccc1Br)N1CCC(c2ccccc2)(c2nccn2Cc2ccccc2)CC1 = 7.50

Exercise: Would you kindly share the measured pIC50 for O=S(=O)(Nc1ccccc1)N1CCC(c2ccccc2)(c2nccn2Cc2ccccc2)CC1 ?
Solution: 8.20

Exercise: Query COC(=O)c1ccccc1NC(=O)N1CCC(c2ccccc2)(c2nccn2Cc2ccccc2)CC1 next
Solution: 7.70

Exercise: Query c1ccc(Cn2ccnc2C2(c3ccccc3)CCN(c3nccs3)CC2)cc1 next
Solution: 7.90

* * *

- measuredTarget: δ opioid receptor (Homo sapiens)
- Construct: expressed in transfected cells; host or cells: C6 glioma cells (permanently transfected)
- Sequence (P41143 whole entry): as above
- assayDetails: [35S]GTPγS binding, delta agonism
- Format: biochemical
attributeMeasured: IC50
Please don't drop the unit; write it after the number.

Exercise: Would you kindly share the measured IC50 for O=S(=O)(Nc1ccccc1)N1CCC(c2ccccc2)(c2nccn2Cc2ccccc2)CC1 ?
Solution: 794 nM

* * *

- measuredTarget: δ opioid receptor (Homo sapiens)
- Construct: expressed in transfected cells; host or cells: C6 glioma cells (permanently transfected)
- assayDetails: Signal transport binding, delta antagonism
- Assay type: biochemical
pIC50: −log10 of the molar value.
attributeMeasured: pIC50

Exercise: Test system δ opioid receptor (Homo sapiens); read-out pIC50; what value for O=S(=O)(Nc1ccccc1)N1CCC(c2ccccc2)(c2nccn2Cc2ccccc2)CC1 [Compound 98] ?
Solution: < 5.00
